# assay: yeast display, Sf9 membrane polyspecificity reagent, FACS + sequencing; frameworks hold sequencing errors
measured attribute: polyreactivity (PSR sort gate)

In the examples that follow, each entry is paired with its recorded polyreactivity (PSR sort gate).
QVQLVESGGGLVQAGGSLRLSCAASGSIFVWYAMGWYRQAPGRKELVAAISWSGGTTYYADSVKGRFTISRDNAKNTVYLQMNSLKPEDTAVYYCAARGAVQASFYYWGQGTQVTVSS; high polyreactivity
QVQLVESGGGLVQAGRTLRLSCAASGFIFFDNAMGWYRQAPGKERELVAVISSSGTSTYYADAVKGRFTISRDNAKNTVYLQMNSLKPDDTAVYYCNATARTGVYLESDYWGQGTQVTVSS; low polyreactivity
QVQLVESGGGLVQAGGSLRLSCAASGKIFSYNAMGWYRQAPGKERELVAAISRSGGSTYYADSVKGRFTISRDNAKNTVYLQMNSLKPEDTAVYYCAADWRGRKYDYWGQGTQVTVSS; high polyreactivity
QVQLQESGGGLVQAGGSLRLSCAASGYISHAVEMCWYRQAPGKEHELVASISNGGSTNYADSVKGRFTISRDNAKNTVYLQMNSLKSEDTAVYYCAGWTGQVDIHYYWGQGTQVTVSS; low polyreactivity
QVQLVESGGGLVQAGGSLRLSCAASGSIFTTYAMGWYRQAPGKERELVAVISRRGGSTYYADSVKGRFTISRDNAKNTVYLQMNSLKPEDTAVYYCNAAYVWYRIFVRRDYWGQGTQVTVSS; high polyreactivity
QVQLEESGGGLVQAGGSLRLSCAASGSIFDYYAMGWYRKATGKERELVAAISWSGGSTYYADSVKGRFTISRDNAKNTVYLKMIILKPEDTAVYYCAADSSGIGYSSLYFNWGQGSQVTVSS; low polyreactivity
QVQLVESGGGLVQAGGSLRLSCAASGSIIDYYAMGWYRQAPGKERELVAAISSSVGITYYADSVKGRFTISRDNAKNTVYLQMNSLKPEDTAVYYCAADLYGWYFYNQEYDSWGQGTQVTVSS; low polyreactivity
QVQLVESGGGLLQAGGSLRLSCAASGRIFGVYAMGWYRQAPGKEMELVAAISWGGGSTYYADSVKGRFTISRDNAKNTVYLQMISLKPEDTAVFDCAADPPDGFYYTWDYDYWGQGTQVTVSS; low polyreactivity
QVQLVESGGGLVQAGGSLRLSCAASGFTFRSYTMGWYRQAPGKERELVAAITSRGTSTYYADSVKGRFTISRDNAKNTVYLQMNSLKPEDTAVYYCADPIYNGYASWQVYYWGQGTQVTVSS; high polyreactivity
QVQLVESGGGLVQAGGSLRLSCAASGSIFSNNAMGWYRPAPGKERELVAAITRSGGNTYYADSVKGRFTISRDNAKNTVYLQMNSLKPEDTAVYYCAASNSHVGPNDYWGQGTQVTVSS; high polyreactivity

Task: Find the recorded polyreactivity (PSR sort gate) belonging to QVQLVESGGGLVQAGGSLRLSCAASGRIFSVYTMGWYRQAPGKEREFVASITGSAGSTYYADSVKGRFTISRDNAKNTVYLQMNSLKPEDTAVYYCAKRITAWYTYYGYWGQGTQVTVSS and report it.
Result: low polyreactivity

* * *

# assay: yeast display, Sf9 membrane polyspecificity reagent, FACS + sequencing; frameworks hold sequencing errors
measured attribute: polyreactivity (PSR sort gate)

Look over these answered cases.
QVQLVESGGGLVQAGGSLRLSCAASGSIFPAYTMGWYRPAPGKERELVAAITRRGGSTYYADSVKGRFTISRDNSKNTVYLQMNSLKPEDTAVYYCAAGGLYTPYDYWGQGTQVTVSS; low polyreactivity
QVQLVESGGGLVQAGGSLRLSCAASGITSEYNTMGWYRQAPGKERELVAGISYRGGSTYYADSVKGRFTISRDNAKNTVYLQMNSLKPEDTAVYYCAKSFKRWRYGNPDYYWGQGTQVTVSS; high polyreactivity
QVQLVESGGGLVQAGGSLRLSCADSGFNFYQYAMGWYRQAPGKERELVAVISGSGSRTYYADSVKGRFTISRDNAKNTVYLQMNSLKPEDTAVYYCAAKGVIISYDTLRYDSWGQGTQVTVSS; high polyreactivity
QVQLVESGGGLVQAGGSLRLSCAASGLIFNKNSMGWYRQAPGKERELVASNTTTGARTYYADSVKGRFTISRDNAKNTVYLQMNSLKPEDTAFYYCASVHWGWRSITGGVGYDSWGQGTQVTVSS; high polyreactivity
QVQLVESGGRLVQAGGSLRLSCSASGSTFRRNAMGWYRQAPGKERELVAAISWSSTRTYYADSVKGRFTISRDNAKNTVYLQMNSLKPEDTAVYYCAADSYGGGFQLYSYVSGLYYWGEGTQVTVSS; high polyreactivity

Please give polyreactivity (PSR sort gate) for each item listed below.
1. QVQLVESGGGVVQAGGSLRLSCAASGSIFPYNAMGWYRPAPGKERELVAVITSSGGSTYYADSVKGRFTISRDNAKNTVYLQMNSLKPEDTAVYYVAARGYNYYFGGYDYWGQGTQVTVSS
2. QVQLVESGGGLVQAGGSLRLSCAASGRTFRKYTMGWYRQAPGKERELVAAISSRGGSTYYADSVKGRFTISRDNAKNTVYLQMNSLKPEDTAVYYCATDYITPSSEGDYWGQGTQVTVSS

Result:
low polyreactivity
high polyreactivity

* * *

# assay: yeast display, Sf9 membrane polyspecificity reagent, FACS + sequencing; frameworks hold sequencing errors
measured attribute: polyreactivity (PSR sort gate)

Examples with their reported polyreactivity (PSR sort gate) follow.
QVQLVESGGGLVQAGGSLRLSCAASGGIFAPYAMGWYRTAPGKERELVAAISSSDGSTYYADSVKGRFTISRDNAQNTVYLHMNSLKTVDTAVYYCAADYREDYGYWGEGTQVTVSS; low polyreactivity
QVQLVESGGGLVQAGGSLRLSCAASGGIFHHYAMGWSRPAPGKERELVAGISWRGTSTYYADSVKGRFTISRDNAKNTVYLQMNSLKPEDTAVYYCARVYPYSVGYNSGHPASYDYWGQGTQVTVSS; high polyreactivity
QVQLVESGGGLVQSGGSLRLSCAASGYIFFFNAMGWYRQAPGKERELVAAITRRGVSTYYADSVKGRCTISRDNAKNTVFLQMNSLKPEDTAVYYCATEHNHLGYYYWGQGTQVTVSS; low polyreactivity
QVQLVESGGGLVQAGGSLRLSCAASGRIFVTNAMGWYRQAPGNERELVAGLNRSGDITYYADSVKGRFTISRDNAKNTVYLQMNSLKPEDTAVYYCAVDFYVYRWSPYGDVYRYDYWGQGTQVTVSS; high polyreactivity
QVQLVESGGGLVQAGGSLRLSCAASGFTFQYYTMGWYRQAPGKERELVAAISGSGGRTYYADSVKGRFTISRDNAKNTVYLQMNSLKPEDTAVYYCAKVYNRVYYGKGDYWGQGTQVTVSS; high polyreactivity

Please state polyreactivity (PSR sort gate) for every sequence in the list that follows.
1. QVQLVESGGGLVQAGGSLRLSCAASGIILSDNAMGWYRQAPGKEREFVAAITGSCGSTYYADSVKGRFTISRDYAKKTDDLQMNSLKPEDTAVYYCSADGPFGYYYGHYGYWGQVTQVTVSS
2. QVQLVESGGGLVQAGGSLRLSCAASGLTLDKYAMGWYRQAPGKERELVAGINSRGGSTYADSVKGRFTISRDNAKNTVYLQMNSMKPEDTAVYYCAADGKVQGGYYWGQGTQVTVSS
3. QVQLVESGGGLVQAGGSLRLSCAAYGRTFLYNAMGWYRQAPGKERELVAAISSRGARTYYADSVKGRFTISRDNAKNTVYLQMNSLKPEDTAVYYCATDSYRYDGIQYLYEYYYWGQGTQVTVSS
4. QVQLVESGGGLVQAGGSLRLSCAASGFTFTRYAMGWYIQAPGKERELVAAISRRSGGRTYYADSVKGRFTISRDNAKNTVYLQMNSLKPEDTAVYYCAADYSLRSGYEYWGQGTQVTVSS
5. QVQLVESGGGLVQAGGSLRLSCASSGRIFKYNAMGWYRQAPGKERELVAAISSSGARTYYADSVKGRFTISRDNAKNTVYLQMNSLKPEDTAVDYCAAPFTSNRSIRPYGYWGQGTQVTVSS
6. QVQLVESGGGLVQAGGSLRLSCAASGSTFFVNAMGWYRQPPGKERELVAAISTSGGRTYYADSVKGRFTISRDNAKNTVYLQMNSLKPEDTAVYYCAAYLRSPKGYYYWGQGTQVTVSS
7. QVQLVESGGGLVQAGGILRLICDASGFIIGYYAMGWYRQAPGKERELVAAISKSGGRTRYADSVKGRFTISRDNAKNTVYLQMNSLKPEDTAVYYCATYDPARSTQGYDYWGQGTQVTVSS
8. QVQLVESGGGLVQAGGSLRLSCAASGRIFTQYAMGWYRQAPGKERELVAAINASDGSTYADSVKGRFTISRDNAKNTVYLQMNSLKPEDSAVYFCYVTGGPYDFTRWSEFDHWGQGTQVTVSS

Result:
1: low polyreactivity; 2: high polyreactivity; 3: high polyreactivity; 4: high polyreactivity; 5: high polyreactivity; 6: high polyreactivity; 7: high polyreactivity; 8: low polyreactivity
